# measurement-description: Half life in simulated gastric fluid at 20 uM by LC-MS/MS analysis
# Format: ADME
Entries annotated with measured half-life at 20 µM

>>> assay_value("CC(=O)NCCCC[C@H](NC(=O)[C@](C)(CC(C)C)NC(=O)[C@H](Cc1ccc2ccccc2c1)NC(=O)[C@H](Cc1ccc(OCCN)cc1)NC(=O)[C@@H](NC(=O)[C@H](CCC(N)=O)NC(=O)[C@H](Cc1c[nH]c2ccccc12)NC(=O)[C@@H](NC(=O)[C@H](CCC(N)=O)NC(=O)[C@@H](NC(C)=O)C(C)(C)S)[C@@H](C)O)C(C)(C)S)C(=O)N[C@@H](CC(N)=O)C(=O)N[C@@H](CC(N)=O)C(N)=O")
"3 to 6 h"

Given the compound CC(=O)NCCCC[C@](C)(NC(=O)[C@H](Cc1ccc2ccccc2c1)NC(=O)[C@H](Cc1ccc(OCCNC(C)=O)cc1)NC(=O)[C@@H](NC(=O)[C@H](CCC(N)=O)NC(=O)[C@H](Cc1c[nH]c2ccccc12)NC(=O)[C@@H](NC(=O)[C@H](CCC(N)=O)NC(=O)[C@@H](NC(C)=O)C(C)(C)S)[C@@H](C)O)C(C)(C)S)C(=O)N[C@@H](CCC(=O)O)C(=O)N[C@@H](CC(N)=O)C(=O)N[C@@H](C)C(N)=O , what is its reported half-life at 20 µM?
> 6 h

----------
# test-target: Interleukin-23 receptor (Homo sapiens)
# measurement-description: Inhibition of interleukin-23 binding to human interleukin-23 receptor incubated for 2 hrs by competitive binding ELISA
Where a SMILES comes first, the peptide text is derived from it. [ ]: non-standard residue; d: D form. hLeu = CC(C)CC[C@H](N)C(=O)O
Entries annotated with measured IC50

>>> assay_value("CC(=O)N[C@H]1CCSC[C@@H](C(=O)N[C@@H](Cc2ccc(O)cc2)C(=O)N[C@@H](Cc2ccc3ccccc3c2)C(=O)N[C@@](C)(CC(C)C)C(=O)N[C@@H](CCC(=O)O)C(=O)N[C@@H](CC(N)=O)C(=O)NCC(N)=O)NC(=O)[C@H](CCC(N)=O)NC(=O)[C@H](Cc2c[nH]c3ccccc23)NC(=O)[C@H]([C@@H](C)O)NC(=O)[C@H](CCC(N)=O)NC1=O")
"10 to 25 nM"
>>> assay_value("CC(=O)N[C@@H](CS)C(=O)N[C@@H](CCC(N)=O)C(=O)N[C@H](C(=O)N[C@@H](CCC(=O)O)C(=O)N[C@@H](CCC(N)=O)C(=O)N[C@@H](CS)C(=O)N[C@@H](Cc1ccc(O)cc1)C(=O)N[C@@H](Cc1c[nH]c2ccccc12)C(=O)N[C@@H](CCC(C)C)C(=O)N[C@@H](CCC(=O)O)C(=O)N[C@@H](CC(N)=O)C(=O)NCC(N)=O)[C@@H](C)O (Ac-CQTEQCYW[hLeu]ENG-NH2)")
"> 10000 nM"

Here is another compound to look at.
Given the compound CC(=O)N[C@H]1CCSC[C@@H](C(=O)N[C@@H](Cc2ccc(OCCN)cc2)C(=O)N[C@@H](Cc2ccc3ccccc3c2)C(=O)N[C@@](C)(CCCCN)C(=O)N[C@@H](CCC(=O)O)C(=O)N[C@@H](CC(N)=O)C(=O)NCC(N)=O)NC(=O)[C@H](CCC(N)=O)NC(=O)[C@H](c2ccc(Cl)c(Cl)c2)NC(=O)[C@H]([C@@H](C)O)NC(=O)[C@H](CCC(N)=O)NC1=O , what is its reported IC50?
> 3000 nM

----------
# test-target: UniProtKB Q5VWK5
# measurement-description: Inhibition of interleukin-23 binding to human interleukin-23 receptor incubated for 2 hrs by competitive binding ELISA
recorded-endpoint: pIC50
Conceptually, pIC50 converts a concentration in mol/L into minus its log10.

Given the molecule CCCCCCCCCCCCCCCC(=O)NCCCC[C@H](NC(=O)[C@H](Cc1c[nH]c2ccccc12)NC(=O)[C@H](Cc1ccc(O)cc1)NC(=O)[C@H](CS)NC(=O)[C@H](CCC(N)=O)NC(=O)[C@H](Cc1c[nH]c2ccccc12)NC(=O)[C@@H](NC(=O)[C@H](CCC(N)=O)NC(=O)[C@H](CS)NC(C)=O)[C@@H](C)O)C(=O)N[C@@H](CCC(=O)O)C(=O)N[C@@H](CC(N)=O)C(=O)NCC(N)=O , what is its reported pIC50?
5.31

----------
Entries annotated with measured pIC50
# test-target: Interleukin-23 receptor (Homo sapiens, UniProt Q5VWK5)
# Sequence (Q5VWK5 whole entry): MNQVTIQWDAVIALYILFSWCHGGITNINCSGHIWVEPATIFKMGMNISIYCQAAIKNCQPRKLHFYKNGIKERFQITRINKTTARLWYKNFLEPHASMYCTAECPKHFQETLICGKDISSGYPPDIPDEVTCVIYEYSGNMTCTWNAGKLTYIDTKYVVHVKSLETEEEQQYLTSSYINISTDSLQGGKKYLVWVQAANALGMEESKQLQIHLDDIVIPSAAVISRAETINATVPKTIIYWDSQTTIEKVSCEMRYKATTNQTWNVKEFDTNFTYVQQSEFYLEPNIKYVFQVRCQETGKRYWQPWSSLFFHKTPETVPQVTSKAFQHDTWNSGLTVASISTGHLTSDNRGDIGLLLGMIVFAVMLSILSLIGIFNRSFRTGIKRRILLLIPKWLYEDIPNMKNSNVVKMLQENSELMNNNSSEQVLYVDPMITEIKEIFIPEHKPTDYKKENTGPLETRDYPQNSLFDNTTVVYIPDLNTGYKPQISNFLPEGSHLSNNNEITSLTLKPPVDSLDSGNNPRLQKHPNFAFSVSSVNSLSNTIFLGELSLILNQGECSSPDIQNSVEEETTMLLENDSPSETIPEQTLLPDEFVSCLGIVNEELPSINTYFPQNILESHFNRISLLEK
# measurement-description: Inhibition of interleukin-23 binding to human interleukin-23 receptor incubated for 2 hrs by competitive binding ELISA
pIC50: −log10 of the molar value. Where a SMILES comes first, the peptide text is derived from it.

# example entries with known answers
>>> assay_value("CC(=O)N[C@H]1CCSC[C@@H](C(=O)N[C@@H](Cc2ccc(O)cc2)C(=O)N[C@@H](Cc2c[nH]c3ccccc23)C(=O)N[C@@H](CCCNC(=N)N)C(=O)N[C@@H](CCC(=O)O)C(=O)N[C@@H](CC(N)=O)C(=O)NCC(=O)NCCOCC(=O)N[C@H](CCCCN)C(N)=O)NC(=O)[C@H](CCC(N)=O)NC(=O)[C@H](Cc2c[nH]c3ccccc23)NC(=O)[C@H]([C@@H](C)O)NC(=O)[C@H](CCC(N)=O)NC1=O")
"6.00 to 7.00"
>>> assay_value("CC(=O)N[C@@H](CS)C(=O)N[C@@H](C)C(=O)N[C@H](C(=O)N[C@@H](Cc1c[nH]c2ccccc12)C(=O)N[C@@H](CCC(N)=O)C(=O)N[C@@H](CS)C(=O)N[C@@H](Cc1ccc(O)cc1)C(=O)N[C@@H](Cc1c[nH]c2ccccc12)C(=O)N[C@@H](Cc1cnc[nH]1)C(=O)N[C@@H](CCC(=O)O)C(=O)N[C@@H](Cc1ccc(O)cc1)C(=O)NCC(N)=O)[C@@H](C)O (Ac-CATWQCYWHEYG-NH2)")
"> 6.30"
>>> assay_value("CC(=O)N[C@@H](CS)C(=O)N[C@@H](CCC(N)=O)C(=O)N[C@H](C(=O)N[C@@H](Cc1c[nH]c2ccccc12)C(=O)N[C@@H](CCC(N)=O)C(=O)N[C@@H](CS)C(=O)N[C@@H](Cc1ccc(O)cc1)C(=O)N[C@@](C)(Cc1c[nH]c2ccccc12)C(=O)N[C@@H](CCCNC(=N)N)C(=O)N[C@H](C(=O)N[C@@H](CC(N)=O)C(=O)NCC(=O)NCCC(=O)N[C@H](CCCCN)C(N)=O)C(C)C)[C@@H](C)O")
5.22

Given the molecule CC(=O)N[C@@H](CS)C(=O)N[C@@H](C)C(=O)N[C@@H](CC(=O)O)C(=O)N[C@@H](Cc1c[nH]c2ccccc12)C(=O)N[C@H](C(=O)N[C@@H](CS)C(=O)N[C@@H](Cc1ccc(O)cc1)C(=O)N[C@@H](Cc1c[nH]c2ccccc12)C(=O)N[C@@H](Cc1cnc[nH]1)C(=O)N[C@H](C(=O)N[C@@H](Cc1ccccc1)C(=O)NCC(N)=O)[C@@H](C)O)C(C)C , what is its reported pIC50?
< 6.00

----------
# test-target: Interleukin-23 receptor (Homo sapiens)
# measurement-description: Inhibition of interleukin-23 receptor in human DB cells assessed as reduction in IL-23-stimulated STAT3 phosphorylation incubated for 30 mins by HTRF assay
# Assay type: cell-based
recorded-endpoint: IC50

Given the molecule CC(=O)N[C@H]1CCSC[C@@H](C(=O)N[C@@H](Cc2ccc(OCCN)cc2)C(=O)N[C@@H](Cc2c[nH]c3ccccc23)C(=O)N[C@@](C)(CC(C)C)C(=O)N[C@@H](CCC(=O)O)C(=O)N[C@@H](CC(N)=O)C(=O)NCC(N)=O)NC(=O)[C@H](CCC(N)=O)NC(=O)[C@H](Cc2c[nH]c3ccccc23)NC(=O)[C@H]([C@@H](C)O)NC(=O)[C@H](CCC(N)=O)NC1=O , what is its reported IC50?
< 0.01 µM

Given the molecule CC(=O)NCCCC[C@](C)(NC(=O)[C@H](Cc1ccc2ccccc2c1)NC(=O)[C@H](Cc1ccc(OCCNC(C)=O)cc1)NC(=O)[C@@H]1CSCC[C@H](NC(C)=O)C(=O)N[C@@H](CCC(N)=O)C(=O)N[C@@H]([C@@H](C)O)C(=O)N[C@@H](Cc2c[nH]c3ccccc23)C(=O)N[C@@H](CCC(N)=O)C(=O)N1)C(=O)N[C@@H](CCC(=O)O)C(=O)N[C@@H](CC(N)=O)C(=O)N[C@@H](CC(N)=O)C(N)=O , what is its reported IC50?
< 0.01 µM

// provenance: ChEMBL document CHEMBL4417631
